B1: TPR 5TU (parent)
chain: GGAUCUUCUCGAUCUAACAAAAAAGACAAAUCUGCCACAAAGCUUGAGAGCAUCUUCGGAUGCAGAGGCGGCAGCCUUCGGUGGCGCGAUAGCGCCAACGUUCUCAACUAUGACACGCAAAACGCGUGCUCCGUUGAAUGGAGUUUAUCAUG

# Variants of: B1
# Assay summary: polymerase ribozyme fitness, log enrichment relative to wild type (log ratio); higher = more active; in vitro selection for triplet polymerase activity
Fewer inactive variants are shown than the library holds.
Measured polymerase ribozyme fitness (log ratio) of individual entries
Hey, just send me the number, nothing else.

Below: 2 variants and their reported polymerase ribozyme fitness (log ratio).
Mutation id: G50U C93U
Endpoint: polymerase ribozyme fitness (log ratio)
Reported measurement: -2.05
//
Mutation id: C54U U82G C95A A119G
Endpoint: polymerase ribozyme fitness (log ratio)
Reported measurement: -2.04

Consider the additional variant presented here.
IN: Query (variant): C85A A106G ; field requested: polymerase ribozyme fitness (log ratio)
OUT: -2.01
